Source: ChEMBL document CHEMBL4373665

experiment: Ulcerogenic activity in rat assessed as incidence of gastric ulceration at 50 mg/kg, sc qd for 4 days post 18 hrs fasting measured after 4 days relative to control; type: toxicity, organism-based; settings: in vivo, 96 h
readoutLabel: Activity (%)

INSERT INTO assay_data (molecule, result) VALUES
  ('O=C(/C=C/c1cn(-c2ccccc2)nc1-c1ccc(OCc2ccccc2)cc1)c1ccc(Cl)cc1', 2),
  ('Nc1nc(-c2ccccc2)cc(-c2cn(-c3ccccc3)nc2-c2ccc(OCc3ccccc3)cc2)n1', 2),
  ('CC(=O)n1nc(-c2ccccc2)cc1-c1cn(-c2ccccc2)nc1-c1ccc(OCc2ccccc2)cc1', 4),
  ('S=c1nc(-c2ccc(Cl)cc2)cc(-c2cn(-c3ccccc3)nc2-c2ccc(OCc3ccccc3)cc2)[nH]1', 4),
  ('COc1ccc2c(c1)c(CC(=O)O)c(C)n2C(=O)c1ccc(Cl)cc1', 10),
  ('O=C(/C=C/c1cn(-c2ccccc2)nc1-c1ccc(OCc2ccccc2)cc1)c1ccccc1', 2),
  ('Cc1ccc(-c2cc(C(F)(F)F)nn2-c2ccc(S(N)(=O)=O)cc2)cc1', 2),
  ('N#CC1=C(N)OC(c2ccccc2)=CC1c1cn(-c2ccccc2)nc1-c1ccc(OCc2ccccc2)cc1 (centres undefined)', 4),
  ('Clc1ccc(-c2cc(-c3cn(-c4ccccc4)nc3-c3ccc(OCc4ccccc4)cc3)on2)cc1', 6);

* * *

system: Rattus norvegicus; assay: Anti-inflammatory activity in albino rat model of carrageenan-induced paw edema assessed as inhibition of carrageenan-induced paw edema at 100 mg/kg, po administered as single dose prior to carrageenan challenge measured after 3 hrs relative to control; assay type: functional
Classes based on inhibition in vivo at 100 mg/kg: low group (below 30%), middle group (30% to below 60%), high group (60% or more)

INSERT INTO results (compound, category) VALUES
  ('NC(=S)n1nc(-c2ccccc2)cc1-c1cn(-c2ccccc2)nc1-c1ccc(OCc2ccccc2)cc1', 'low group'),
  ('NC(=S)n1nc(-c2ccc(Cl)cc2)cc1-c1cn(-c2ccccc2)nc1-c1ccc(OCc2ccccc2)cc1', 'low group'),
  ('S=c1nc(-c2ccccc2)cc(-c2cn(-c3ccccc3)nc2-c2ccc(OCc3ccccc3)cc2)[nH]1', 'middle group'),
  ('O=C(/C=C/c1cn(-c2ccccc2)nc1-c1ccc(OCc2ccccc2)cc1)c1ccc(Cl)cc1', 'high group'),
  ('CC(=O)n1nc(-c2ccc(Cl)cc2)cc1-c1cn(-c2ccccc2)nc1-c1ccc(OCc2ccccc2)cc1', 'middle group'),
  ('N#CC1=C(N)OC(c2ccc(Cl)cc2)=CC1c1cn(-c2ccccc2)nc1-c1ccc(OCc2ccccc2)cc1 (stereo unspecified)', 'middle group'),
  ('COc1ccc2c(c1)c(CC(=O)O)c(C)n2C(=O)c1ccc(Cl)cc1', 'high group'),
  ('Nc1nc(-c2ccccc2)cc(-c2cn(-c3ccccc3)nc2-c2ccc(OCc3ccccc3)cc2)n1', 'high group'),
  ('S=c1nc(-c2ccc(Cl)cc2)cc(-c2cn(-c3ccccc3)nc2-c2ccc(OCc3ccccc3)cc2)[nH]1', 'middle group');
